Items are presented alongside their recorded Ki.
- tgt: Glucocorticoid receptor (Homo sapiens)
- testSummary: Antagonist activity at human glucocorticoid receptor in SW1353 cells assessed as inhibition of dexamethasone-induced luciferase expression by MMTV5 reporter gene assay
- Assay type: functional, cell-based
Report as a plain number; the unit nM is understood.

compound	Ki, nM
CC(C)(C)c1ccc(S(=O)(=O)N2CCC3=CC(=O)CC[C@]3(Cc3ccccc3)C2)cc1	200
CC#C[C@@]1(O)CC[C@@]2(Cc3ccccc3)c3ccc(O)cc3CC[C@@H]2C1	4
CC(C)(C)c1ccc(S(=O)(=O)N2CCC3=CC(=O)CCC3(Cc3ccc(-c4ccncc4)cc3)C2)cc1 (racemic)	180

Noted for CC(C)(C)c1ccc(S(=O)(=O)N2CCC3=CC(=O)CCC3(Cc3ccc(Br)cc3)C2)cc1 (centres undefined) : its Ki reads 200

###

- tgt: Glucocorticoid receptor (Homo sapiens)
- Sequence (P04150 whole entry): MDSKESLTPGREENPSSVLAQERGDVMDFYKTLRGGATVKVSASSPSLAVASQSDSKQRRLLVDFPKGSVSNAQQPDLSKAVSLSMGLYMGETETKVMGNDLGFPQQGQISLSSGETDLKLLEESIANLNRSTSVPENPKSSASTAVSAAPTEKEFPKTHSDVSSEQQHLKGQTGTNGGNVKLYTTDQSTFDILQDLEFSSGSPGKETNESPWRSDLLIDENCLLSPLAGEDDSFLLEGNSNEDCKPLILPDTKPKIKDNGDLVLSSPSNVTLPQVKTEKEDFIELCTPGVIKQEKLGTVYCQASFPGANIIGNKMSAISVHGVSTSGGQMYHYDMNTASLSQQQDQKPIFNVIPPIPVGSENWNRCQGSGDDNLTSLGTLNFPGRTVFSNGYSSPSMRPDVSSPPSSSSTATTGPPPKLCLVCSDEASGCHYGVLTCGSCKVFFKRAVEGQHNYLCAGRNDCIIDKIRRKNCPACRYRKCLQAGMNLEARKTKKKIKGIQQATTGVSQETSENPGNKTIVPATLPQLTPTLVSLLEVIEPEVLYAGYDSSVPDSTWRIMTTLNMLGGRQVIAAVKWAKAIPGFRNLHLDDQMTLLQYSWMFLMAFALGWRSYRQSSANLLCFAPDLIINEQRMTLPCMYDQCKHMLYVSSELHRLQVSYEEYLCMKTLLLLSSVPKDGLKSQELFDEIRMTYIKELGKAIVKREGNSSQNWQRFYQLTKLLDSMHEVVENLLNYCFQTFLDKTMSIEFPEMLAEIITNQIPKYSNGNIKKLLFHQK
- testSummary: Displacement of [3H]dexamethasone from human glucocorticoid receptor expressed in recombinant baculovirus
quantityKind: Ki (nM)
Answer in nM, number only, no unit symbol.

molecule	Ki [nM]
O=C1C=C2CCN(S(=O)(=O)c3ccccc3C(F)(F)F)CC2(Cc2ccccc2)CC1 (racemic)	4450
CC(C)(C)c1ccc(S(=O)(=O)N2CCC3=CC(=O)CCC3(Cc3ccc(N)cc3)C2)cc1 (racemic)	99
COc1ccc(CN2CCC3=CC(=O)CCC3(Cc3ccccc3)C2)cc1 (racemic)	2250
O=C1C=C2CCN(S(=O)(=O)c3ccc(-c4ccccc4)cc3)CC2(Cc2ccccc2)CC1 (configuration not stated)	55
O=C1C=C2CCN(S(=O)(=O)c3cccc([N+](=O)[O-])c3)CC2(Cc2ccccc2)CC1 (racemic)	3000
CC(C)(C)c1ccc(S(=O)(=O)N2CCC3=CC(=O)CCC3(Cc3ccc([N+](=O)[O-])cc3)C2)cc1 (racemic)	45

Let's switch to this molecule now.
// field: Ki; key: O=C1C=C2CCN(S(=O)(=O)Nc3ccccc3)CC2(Cc2ccccc2)CC1 (racemic) ; value = 1200
